Reference for the values: ChEMBL document CHEMBL1914335

organism: Cavia porcellus; assay: Selectivity ratio of Ki for sigma2 receptor in guinea pig brain membrane to Ki for sigma1 receptor in guinea pig brain membrane; assay type: cell membranes
observable: Ratio Ki

Illustrative cases are given below, each with its answer.
>  <smiles.entry>
COc1ccc(/C(C)=C/CN2CCC(Cc3ccccc3)CC2)cc1

>  <Ratio Ki>
1.7

$$$$
>  <smiles.entry>
C/C(=C\CN1CCCCC1)c1ccccc1

>  <Ratio Ki>
0.4

$$$$
>  <smiles.entry>
COc1ccc(/C(C)=C/CN2CCCCC2)cc1

>  <Ratio Ki>
10.6

$$$$
>  <smiles.entry>
C/C(=C\CN1CCCCC1)c1ccc(-c2ccccc2)cc1

>  <Ratio Ki>
129

$$$$
>  <smiles.entry>
COc1cccc(/C(C)=C/CN2CCCCC2)c1

>  <Ratio Ki>
3.2

$$$$
>  <smiles.entry>
C/C(=C\CN1CCCCC1)c1ccc2ccccc2c1

>  <Ratio Ki>
36.2

$$$$

(a) COc1cccc(/C(C)=C/CN(C)Cc2ccccc2)c1
(b) C/C(=C\CN1CCOCC1)c1ccc(-c2ccccc2)cc1
q: So which one has the bigger Ratio Ki here, a or b ? // respond with label for picked entry
a: b
(b: 33.3, a: 16.3)
